Just for reference, patent US20100216721A1 is where these values come from.

TARGET_ENTITY: HIV-1 SF162 gp120 (HIV-1 strain SF162), P19550
TEST_DETAILS: SPR (Biacore 3000); peptide over immobilized gp120
ATTRIBUTE_MEASURED: Kd (nM)
Field format: number, assumed nM, no unit text.

Exercise: // returns reported Kd for input RINNIPWSEAMM (modifications not checked) [HNG-156]
Solution: 9

Exercise: // returns reported Kd for input RINNIPWSEAMM (modifications not checked) [HNG-105]
Solution: 70.5
